B1: LINE1-full (parent)
chain: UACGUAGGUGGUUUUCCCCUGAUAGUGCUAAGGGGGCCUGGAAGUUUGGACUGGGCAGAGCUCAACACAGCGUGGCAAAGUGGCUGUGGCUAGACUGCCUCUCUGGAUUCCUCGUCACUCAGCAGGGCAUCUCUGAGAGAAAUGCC

Variants of: B1
Assay: self-cleavage, relative activity (ratio to wild type); higher = more cleavage; in vitro, sequencing; the parent is a self-cleaving ribozyme
experimental endpoint: self-cleavage

INSERT INTO assay_data (alteration, assay_result) VALUES
  ('C16U U20A', 1.02),
  ('U20C U91A', 0.55),
  ('G27A G36C', 1.24),
  ('A24G A31U', 1.37),
  ('U15A A107U', 1.06),
  ('G33U A43U', 0.54),
  ('U45A A107G', 1.44),
  ('A6U U45C', 1.35),
  ('U20A G48U', 1.42),
  ('G75A U104C', 1.43),
  ('U26C U119A', 1.25),
  ('C76U U132A', 2.54),
  ('U14A U100C', 0.78),
  ('C37A A64U', 0.35),
  ('U73C U91A', 0.57),
  ('U26C G32C', 0.94),
  ('A42G U87A', 0.1),
  ('A69G U81A', 0.38),
  ('C28G U115C', 0.75),
  ('U12C C120A', 1.47),
  ('A78U A79G', 0.74),
  ('A78G C116U', 1.29),
  ('U15C G54A', 0.74),
  ('U15C G106C', 1.03),
  ('U73A U96A', 0.05),
  ('U9A C98U', 0.28),
  ('G32A U73C', 1.49),
  ('U87C U143A', 0.22),
  ('U104A C116A', 1.11),
  ('A129G G135A', 1.63),
  ('C51U A57G', 0.17),
  ('U13C U15G', 0.75),
  ('G53C U96C', 0.09),
  ('U87C A129G', 0.07),
  ('U26G U143A', 0.68),
  ('U26A C90U', 0.04),
  ('A2C U85G', 0.16),
  ('U12A', 1.17),
  ('A77G', 2.12),
  ('G32A U96C', 0.13),
  ('C37U U143A', 1.14),
  ('G74C U102C', 0.88),
  ('U5C U100C', 1.52),
  ('U108C A140U', 1.66),
  ('U46C U143C', 1.52),
  ('C71A U115A', 0.16);
